System: LIM 1215
Assay: MTT cell proliferation assay, LIM 1215
Type: cell-based
Conditions: LIM1215, 72 h; LIM 1215 human colorectal carcinoma; MTT after 3 days of incubation; read-out: IC50, inhibition of proliferation
pIC50: −log10 of the molar value.

Compound | pIC50
COc1ccc(CNc2nc(NCc3ccc(CN)cc3)nc(NN3CC(=O)NC3=O)n2)cc1 (single isomer, unassigned) | 7.05

---

System: LIM2537 human colon carcinoma cell line
Assay: MTS assay using LIM2537 human colon carcinoma cell line
Assay type: cell-based
Conditions: 96 h, LIM2537, 4 days incubation, read-out: IC50 Range

Compound | IC50
COc1ccc(CNc2nc(NCc3ccc(CN4CCCCC4)cc3)nc(NN3CC(=O)NC3=O)n2)cc1 [Compound 13] | 0.1 to 1 µM
CCN(CC)Cc1ccc(CNc2nc(NCc3ccc(OC)cc3)nc(NN3CC(=O)NC3=O)n2)cc1 [Compound 15] | 1 to 10 µM
COc1ccc(CNc2nc(NCc3cccc(N4CCCCC4)c3)nc(NN3CC(=O)NC3=O)n2)cc1 [Compound 20] | 0.1 to 1 µM
COc1ccc(CNc2nc(NCc3ccc(OCCN4CCOCC4)cc3)nc(NN3CC(=O)NC3=O)n2)cc1 [Compound 24] | 0.1 to 1 µM
COc1ccc(CNc2nc(NCc3ccc(N4CCCCC4)cc3)nc(NN3CC(=O)NC3=O)n2)cc1 [Compound 17] | ≤ 0.1 µM

---

Test system: MCF-7
Assay: Antimitotic effects (G2/M cell cycle block, DNA staining, ModFit) on MCF-7
Type: cell-based, human
Conditions: Homo sapiens, MCF7, inhibitors added to cells in log-growth for 24 hrs, read-out: IC50 for progression through the cell cycle
Entries annotated with measured IC50
Recorded Metric: IC50 (nM)

Compound | Numeric Result
COc1ccc(CNc2nc(NCc3ccc(CN)cc3)nc(NN3CC(=O)NC3=O)n2)cc1 (single isomer, unassigned) | 9
COc1ccc(CNc2nc(NCc3ccc(OC)cc3)nc(NC3NC(=O)N(C)C3=O)n2)cc1 (stereo not shown) | 450
CC(=O)O[C@H]1C(=O)[C@@]2(C)[C@H]([C@H](OC(=O)c3ccccc3)[C@]3(O)C[C@H](OC(=O)[C@H](O)[C@@H](NC(=O)c4ccccc4)c4ccccc4)C(C)=C1C3(C)C)[C@]1(OC(C)=O)CO[C@@H]1C[C@@H]2O [Taxol, reference compound] | 8
COc1ccc(CNc2nc(NCc3ccc(OC)cc3)nc(NN3CC(=O)NC3=O)n2)cc1 | 9

---

Tested on: SW480
Assay: Antimitotic effects (G2/M cell cycle block, DNA staining, ModFit) on SW480
Assay type: cell-based, human
Settings: Homo sapiens, inhibitors added to cells in log-growth for 24 hrs, read-out: IC50 for progression through the cell cycle
From the text: For the initial studies two colon carcinoma cell lines (LIM1215 and SW480) and two breast cancer cell lines (MDA-MB-231 and MCF-7) were used. Taxol was used as comparator in these experiments (Table 1).
pIC50: −log10 of the molar value.
Entries annotated with measured pIC50

Compound | pIC50
COc1ccc(CNc2nc(NCc3ccc(CN)cc3)nc(NN3CC(=O)NC3=O)n2)cc1 (single isomer, unassigned) [Compound 2] | 6.60
COc1ccc(CNc2nc(NCc3ccc(OC)cc3)nc(NC3NC(=O)N(C)C3=O)n2)cc1 (stereo not shown) [Compound 3] | 5.84
CC(=O)O[C@H]1C(=O)[C@@]2(C)[C@H]([C@H](OC(=O)c3ccccc3)[C@]3(O)C[C@H](OC(=O)[C@H](O)[C@@H](NC(=O)c4ccccc4)c4ccccc4)C(C)=C1C3(C)C)[C@]1(OC(C)=O)CO[C@@H]1C[C@@H]2O [Taxol, reference compound] | 8.10
COc1ccc(CNc2nc(NCc3ccc(OC)cc3)nc(NN3CC(=O)NC3=O)n2)cc1 [Compound 1] | 7.30

---

Test: Pharmacokinetics of Compound 2 in mouse plasma (RP-HPLC)
Format: in vivo
Conditions: mouse, plasma, subcutaneous; mice, 50 mg/kg in aqueous solution; read-out: Elimination half-life (converted)
Recorded Metric: half-life

Compound | Result
COc1ccc(CNc2nc(NCc3ccc(CN)cc3)nc(NN3CC(=O)NC3=O)n2)cc1 (single isomer, unassigned) | ~1.5 h

---

Entries annotated with measured IC50
System: LIM2537 human colon carcinoma cell line
Test: MTS assay using LIM2537 human colon carcinoma cell line
Type: cell-based
Settings: 96 h, LIM2537, 4 days incubation, read-out: IC50 Range

Smiles String | Subject Of Test | IC50
COc1ccc(CNc2nc(NCc3ccc(CN4CCOCC4)cc3)nc(NN3CC(=O)NC3=O)n2)cc1 | LIM2537 human colon carcinoma cell line | > 10000 nM
COc1ccc(CNc2nc(NCc3cccc(N4CCOCC4)c3)nc(NN3CC(=O)NC3=O)n2)cc1 | LIM2537 human colon carcinoma cell line | 1000 to 10000 nM
CCN(CC)CCOc1ccc(CNc2nc(NCc3ccc(OC)cc3)nc(NN3CC(=O)NC3=O)n2)cc1 | LIM2537 human colon carcinoma cell line | 1000 to 10000 nM
COc1ccc(CNc2nc(NCc3cccc(N4CCN(C)CC4)c3)nc(NN3CC(=O)NC3=O)n2)cc1 | LIM2537 human colon carcinoma cell line | > 10000 nM
COc1ccc(CNc2nc(NCc3ccc(N4CCN(C)CC4)cc3)nc(NN3CC(=O)NC3=O)n2)cc1 | LIM2537 human colon carcinoma cell line | 100 to 1000 nM
COc1ccc(CNc2nc(NCc3ccc(N4CCOCC4)cc3)nc(NN3CC(=O)NC3=O)n2)cc1 | LIM2537 human colon carcinoma cell line | 100 to 1000 nM
COc1ccc(CNc2nc(NCc3ccc(CN4CCN(C)CC4)cc3)nc(NN3CC(=O)NC3=O)n2)cc1 | LIM2537 human colon carcinoma cell line | ≤ 100 nM
